Data origin, for the record: patent US7351690B2

Tested on: bombesin receptor
Assay: competitive binding assay, 125I-Bombesin, rat brain membranes
Details: inhibition of 0.01 nM 125I-Bombesin binding; rat brain membranes; test concentration not given
Square brackets hold non-standard residues; d marks the D form. Ends that are not written are not given here.
quantityMeasured: % Inhibition (%)
Number only, in %; omit the unit.

[
  {
    "substance": "D-Phe-Gln-Trp-D-Ala-Val-Cys-His-Leu-Leu-NH2 ([dF]QW[dA]VCHLL-NH2; numbers in words are those of the source; also: oxorhenium(V) N3S1 chelate complex (Re=O)) [10-4]",
    "testedOn": "bombesin receptor",
    "% Inhibition, %": 2
  }
]

Alright, here's another substance for you.
Query block: Recorded % Inhibition for Pyr-Gln-Arg-Leu-Gly-Asn-Cys-Trp-Ala-Val-Gly-His-Leu-Nle-NH2 (QRLGNCWAVGHL; N-term pyroglutamate; Nle-NH2; rhenium complex; printed: Gln-Arg-Leu-Gly-Asn-Cys-Trp-Ala-Val-Gly-His-Leu-) [7-8] , please?
Result block: 84

====

Target: hMC5-R (Homo sapiens, UniProt P33032)
Construct: expressed in transfected cells
Sequence (P33032 whole entry): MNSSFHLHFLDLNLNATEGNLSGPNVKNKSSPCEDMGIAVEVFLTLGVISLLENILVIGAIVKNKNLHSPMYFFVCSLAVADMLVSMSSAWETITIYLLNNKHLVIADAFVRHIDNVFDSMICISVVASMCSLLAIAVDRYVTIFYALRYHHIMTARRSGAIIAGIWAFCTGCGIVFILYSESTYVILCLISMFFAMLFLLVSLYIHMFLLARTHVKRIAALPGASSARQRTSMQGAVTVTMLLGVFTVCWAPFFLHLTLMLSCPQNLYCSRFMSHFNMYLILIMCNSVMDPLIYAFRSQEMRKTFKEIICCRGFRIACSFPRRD
Assay: competitive inhibition binding assay, 125I-NDP-alpha-MSH, hMC5-R membranes
Conditions: 1 μM test peptide; 0.4 nM 125I-NDP-alpha-MSH; hMC5-R membranes
Square brackets hold non-standard residues; d marks the D form. Ends that are not written are not given here. Nle = CCCC[C@H](N)C(=O)O
Items are presented alongside their recorded % Inhibition at 1 μM at Melanocortin Receptor 5.
Number only, in %; omit the unit.

Example results:
[
  {
    "substance": "Tyr-Val-Nle-Gly-Cys-His-Phe-Arg-Trp-Asp-Arg-Phe-NH2 (YV[Nle]GCHFRWDRF-NH2; not fully specified (bridges); printed as Tyr-Val-Nle-Gly-Cys-His-Phe-Arg-Trp-Asp-Arg-Phe-NH2; numbers in words are those of the source; also: oxorhenium(V) N3S1 chelate (Re=O) with Cys) [4-8]",
    "recordedResult": 45
  },
  {
    "substance": "Ac-Ser-Tyr-Ser-Nle-Glu-His-Phe-Arg-Trp-Gly-Lys-Gly-Val-D-Cys-NH2 (EHFRWGKGV; not fully specified; Ac-Ser-Tyr-Ser-Nle N-term; D-Cys; amide; printed: Glu-His-Phe-Arg-Trp-Gly-Lys-Gly-Val-) [2-1]",
    "recordedResult": 53
  },
  {
    "substance": "Tyr-Val-Nle-Gly-His-D-Phe-Arg-Trp-Cys-Asp-Arg-Phe-NH2 (YV[Nle]GH[dF]RWCDRF-NH2; also: Re complex) [3-4]",
    "recordedResult": 100
  },
  {
    "substance": "Tyr-Val-Nle-Gly-His-Cys-D-Phe-Arg-Trp-Asp-Arg-Phe-NH2 [3-8] (YV[Nle]GHC[dF]RWDRF-NH2; numbers in words are those of the source; also: oxorhenium(V) N3S1 chelate complex (Re=O))",
    "recordedResult": 84
  }
]

Query block: Param readout= % Inhibition at 1 μM at Melanocortin Receptor 5; system= hMC5-R (Homo sapiens, UniProt P33032); entry= Tyr-Val-Nle-Cys-Gly-His-Phe-Arg-Trp-Asp-Arg-Phe-NH2 (YV[Nle]CGHFRWDRF-NH2; not fully specified (bridges); printed as Tyr-Val-Nle-Cys-Gly-His-Phe-Arg-Trp-Asp-Arg-Phe-NH2; numbers in words are those of the source; also: oxorhenium(V) N3S1 chelate (Re=O) with Cys) [4-9] ; returns value.
Result block: 43

Query block: Param readout= % Inhibition at 1 μM at Melanocortin Receptor 5; system= hMC5-R (Homo sapiens, UniProt P33032); entry= Tyr-Val-Nle-Gly-His-Phe-Arg-Trp-Asp-Cys-Arg-Phe-NH2 (YV[Nle]GHFRWDCRF-NH2; numbers in words are those of the source; also: oxorhenium(V) N3S1 chelate (Re=O) with Cys) [4-3] ; returns value.
Result block: 65

Query block: Param readout= % Inhibition at 1 μM at Melanocortin Receptor 5; system= hMC5-R (Homo sapiens, UniProt P33032); entry= Tyr-Val-Cys-Nle-Gly-His-D-Phe-Arg-Trp-Asp-Arg-Phe-NH2 (YVC[Nle]GH[dF]RWDRF-NH2; also: Re complex) [3-11] ; returns value.
Result block: 92
